# system: T1, human IL1RAP (hu-IL1RAP) on human cells (human, UniProt Q9NPH3 21-570)
# T1 sequence: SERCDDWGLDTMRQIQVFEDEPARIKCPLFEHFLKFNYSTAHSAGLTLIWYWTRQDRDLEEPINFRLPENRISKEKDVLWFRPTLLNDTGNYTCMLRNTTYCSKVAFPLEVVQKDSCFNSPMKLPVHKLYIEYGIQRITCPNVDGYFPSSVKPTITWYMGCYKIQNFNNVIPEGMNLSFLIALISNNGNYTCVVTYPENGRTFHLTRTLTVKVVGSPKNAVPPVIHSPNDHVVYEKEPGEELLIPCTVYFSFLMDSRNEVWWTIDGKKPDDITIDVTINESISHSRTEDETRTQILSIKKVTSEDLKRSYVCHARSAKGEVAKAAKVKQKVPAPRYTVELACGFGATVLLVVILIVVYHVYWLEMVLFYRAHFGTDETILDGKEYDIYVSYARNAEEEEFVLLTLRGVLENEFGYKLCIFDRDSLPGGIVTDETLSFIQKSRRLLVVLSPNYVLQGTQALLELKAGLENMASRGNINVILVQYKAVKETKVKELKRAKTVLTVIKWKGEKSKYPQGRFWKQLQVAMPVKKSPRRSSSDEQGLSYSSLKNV
# assay.info: cell-based or functional assay
metric: HEK-Blue, IL-1β, % inhibition at 100 nM (%)
Use % as the unit, but write only the number.

Data request: Reported HEK-Blue, IL-1β, % inhibition at 100 nM, binder 13D8 (purified mAb from hybridoma 13D8) (antibody, V domains shown, Mouse hybridoma mAb) VH: EVQLVESGGGLVKPGGSLKLSCTASGFTFSNYAMSWVRQTPEKRLEWVATISDGGNYTYYPDNVKGRFTISRDIAKNNLYLQMSHLKSEDTAMYYCARDRWPYFFDFWGQGTTLTVSS VL: DIQMTQSPASLSVSVGETVTITCRASDNIYSNLAWYQEKQGKSPQLLVYGATNLADGVPSRFSGSGSGTQYSLKINSLQSEDFGSYYCQHFWTTPRSFGGGTKLELK : ____
Data returned: 89

Values were extracted from patent US20260015426A1.
